src = paper PMC10487456

Molecular target: UniProtKB Q55996
Sequence (Q55996 28-497 limits assumed): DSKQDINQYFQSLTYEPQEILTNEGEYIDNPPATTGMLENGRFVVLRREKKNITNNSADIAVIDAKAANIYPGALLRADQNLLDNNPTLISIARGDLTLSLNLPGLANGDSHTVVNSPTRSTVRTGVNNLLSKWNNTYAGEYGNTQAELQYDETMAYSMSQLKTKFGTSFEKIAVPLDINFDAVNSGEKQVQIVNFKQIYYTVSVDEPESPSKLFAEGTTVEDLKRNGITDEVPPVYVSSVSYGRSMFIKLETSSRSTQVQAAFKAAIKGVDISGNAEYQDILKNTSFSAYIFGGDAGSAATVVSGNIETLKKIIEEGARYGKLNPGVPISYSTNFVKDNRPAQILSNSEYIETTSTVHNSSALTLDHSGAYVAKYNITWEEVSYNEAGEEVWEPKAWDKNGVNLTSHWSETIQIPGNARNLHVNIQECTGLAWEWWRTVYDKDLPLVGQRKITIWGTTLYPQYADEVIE
property_measured: pKd
// pKd is dimensionless: -log10 of concentration (M)

Lookup: State pKd on UniProtKB Q55996. Entry: "Cc1ccc([C@@H]2O[C@H](CO)[C@@H](O)[C@H](O)[C@H]2O)cc1Cc1ccc(-c2ccc(F)cc2)s1"
Found: 6.05
